- Test system: L. donovani intramacrophage amastigote forms (LV9)
- experimental-details: In vitro antileishmanial evaluation on intramacrophage amastigotes
- Assay type: cell-based
- conditions-used: Leishmania donovani, RAW264.7, 48 h, read-out: L. donovani IC50
Below is a list of entries, each paired with its recorded pIC50 value.
// pIC50: -log10(molar conc.)

// below: answered compounds
• CC(C)(C)Nc1oc2c(c1C1CCN(C(=O)OC(C)(C)C)CC1)C(=O)c1ccccc1C2=O = 5.16
• O=C1c2ccccc2C(=O)c2c1oc(NC1CCCCC1)c2-c1ccc(Cl)cc1 = 5.03

QUERY: Report pIC50 for CC(C)(C)NC=C1C(=O)C(=O)c2ccccc2C1=O please.
RESULT: 5.46
